- TESTED_ON: PARP-1 F2 S120G (Homo sapiens, UniProt P09874 103-214, S120G)
- Sequence (P09874 103-214 S120G): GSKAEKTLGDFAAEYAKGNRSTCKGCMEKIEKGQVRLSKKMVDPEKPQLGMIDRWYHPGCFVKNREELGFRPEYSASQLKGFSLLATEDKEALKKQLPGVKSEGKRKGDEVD
- TEST_SUMMARY: fluorescence anisotropy; 25 mM NaCl, one-site fit; 50 mM Tris-HCl pH 7.0, 150 uM ZnSO4, 4 mM DTT, 25 C; NaCl 0-200 mM (T2, as in cof; 10 nM DNA) or 25 mM (T3 mutants; 25 nM DNA)
- MEASUREMENT_CONTEXT: protein: recombinant; label: fluorescein-dT at T8; single-chain dumbbell, 18 bp with central nick, two tetraloops
OBSERVED_PROPERTY: pKd
One number for each entry, as −log10 of the molar value.

Field pKd (entry CGGTCGATCGTAAGATCGACCGGCGCTGGAGCTTGCTCCAGCGC (structured_DNA, 5'-phosphate) [44-nt nicked dumbbell, 5'-phosphate, fluorescein-dT] ) reads 5.61
